Values compiled from ChEMBL document CHEMBL3430912.

- Test system: Trypanosoma brucei brucei
- METHOD NOTES: GSK_TCAKS: pIC50 Trypanosoma brucei viability assay using luminiscence. Assay plates (1536-well) were prepared. T. brucei cultures were harvested and counted in a CASY cell counter. A parasite suspension was prepared at a final concentration of 5 * 10^4 cells/mL in complete HMI9 medium and 6uL was dispensed to all wells containing compounds using a Multidrop Combi dispenser. 6uL of HMI9 media with 0.4% DMSO were dispensed to control columns. Plates were incubated for 24 h at 37C, 5% CO2 then tempered for 10 min at room temperature. ATP content was quantified by adding 4 uL of CellTiter-Glo Reagent (Promega) according to the manufacturer's instructions. Luminescence was measured using a ViewLux.
- Format: functional, organism-based
- REPORTED CONDITIONS: Lister 427, CASY
pIC50: −log10 of the molar value.
MEASUREMENT TYPE: pIC50

[[record]]
compound = "COc1cccc(C(=O)[C@H]2C[C@@H]2CN(Cc2cccnc2)Cc2cccnc2)c1"
study_target = "Trypanosoma brucei brucei"
measurement_type = "pIC50"
measured = "< 4.40"

[[record]]
compound = "Nc1nccc(-c2csc(Nc3ccc(Cl)cc3)n2)n1"
study_target = "Trypanosoma brucei brucei"
measurement_type = "pIC50"
measured = "< 4.40"

[[record]]
compound = "CN(Cc1ccc(C(N)=O)cc1)C(c1ccc(F)cc1)c1cccnc1 (stereo not drawn)"
study_target = "Trypanosoma brucei brucei"
measurement_type = "pIC50"
measured = "< 4.40"


====

- Tested on: Trypanosoma brucei brucei
- METHOD NOTES: GSK_TCAKS: pIC50 Trypanosoma brucei viability assay using luminiscence. Assay plates (1536-well) were prepared. T. brucei cultures were harvested and counted in a CASY cell counter. A parasite suspension was prepared at a final concentration of 5 * 10^4 cells/mL in complete HMI9 medium and 6uL was dispensed to all wells containing compounds using a Multidrop Combi dispenser. 6uL of HMI9 media with 0.4% DMSO were dispensed to control columns. Plates were incubated for 24 h at 37C, 5% CO2 then tempered for 10 min at room temperature. ATP content was quantified by adding 4 uL of CellTiter-Glo Reagent (Promega) according to the manufacturer's instructions. Luminescence was measured using a ViewLux.
- Assay type: functional, organism-based
- REPORTED CONDITIONS: Lister 427, CASY
pIC50: −log10 of the molar value.
Measured pIC50 accompanies every entry in the list below.
MEASUREMENT TYPE: pIC50

[[record]]
substance_smiles = "O=C1CN(C(=O)c2cccc(Nc3ncc(-c4ccc5c(c4)OCO5)cn3)c2)CCN1"
measurement_type = "pIC50"
measured = "< 4.30"

[[record]]
substance_smiles = "CN(Cc1ccccc1)Cc1nnnn1C1CCN(Cc2ccc(-n3ccnc3)cc2)CC1"
measurement_type = "pIC50"
measured = "< 4.40"

[[record]]
substance_smiles = "O=C(c1cccc(Nc2ncc(-c3ccc4c(c3)OCO4)cn2)c1)N1CCSC1"
measurement_type = "pIC50"
measured = "< 4.40"


====

IC50 for assorted compounds
- System: Trypanosoma cruzi
- METHOD NOTES: GSK_TCAKS: pIC50 H2C9 Imaging: H9c2 Host Cardiomyocytes. […] Cells were then washed once with PBS before infection. T. cruzi trypomastigotes, collected at days 5 to 8 after infection from LLC-MK2 parasite infected cultures, were allowed to swim out for 4h at 37C from a centrifuged pellet (2,500 rpm/10 min/room temperature). Trypomastigotes were then collected and counted in a CASY Cell Counter. Trypomastigotes, in supplemented DMEM, were added to H9c2 cultures in a multiplicity of infection of 1 and incubated for 18 h. Cells were washed once with PBS before incubation of the infected H9c2 monolayer with trypsin (Life-Technologies) to detach cells from the flask. Cells were counted in a CASY Cell Counter using a 150 um capillary and their density set at 5 * 10^4 cells per mL in supplemented assay DMEM. Infected H9c2 were dispensed into 384-well poly-lysine coated assay plates at 50uL per well using a Multidrop Combi dispenser. After seeding them, the plates were incubated at 37C, 5% CO2 for 72h. Cultures were then fixed and stained by addition of 50 uL of a solution containing 8% formaldehyde and 4 uM DRAQ5 DNA dye (BioStatus, UK) per well. […] Five images were collected per well for reliable statistical analysis. Automated image analysis was performed with a script developed on Acapella High Content Imaging and Analysis Software (PerkinElmer). Output: Number of H9c2 Host Cardiomyocytes nuclei to determine drug-related cytotoxicity.
- Type: functional, organism-based, Rattus norvegicus
- REPORTED CONDITIONS: H9c2, 4 h
MEASUREMENT TYPE: IC50

[[record]]
substance_smiles = "CN1CCCN(C(=O)c2ccc(N3CCCC3)cc2Cl)CC1"
measurement_type = "IC50"
measured = "> 50.1 µM"

[[record]]
substance_smiles = "O=C(Cc1ccc2c(c1)CCC2)Nc1nnc(-c2ccccn2)[nH]1"
measurement_type = "IC50"
measured = "> 50.1 µM"

[[record]]
substance_smiles = "CN(Cc1nc2ccccc2s1)C(=O)C=Cc1cc2ccccc2o1"
measurement_type = "IC50"
measured = "> 50.1 µM"

[[record]]
substance_smiles = "Cc1ccc(CNC2CCN(C[C@@H]3Cn4c(=O)ccc5ccc(=O)n3c54)CC2)cc1F"
measurement_type = "IC50"
measured = "> 50.1 µM"


====

- STUDY TARGET: Sterol 14-alpha demethylase (Trypanosoma cruzi (strain CL Brener))
- Sequence (Q7Z1V1 whole entry): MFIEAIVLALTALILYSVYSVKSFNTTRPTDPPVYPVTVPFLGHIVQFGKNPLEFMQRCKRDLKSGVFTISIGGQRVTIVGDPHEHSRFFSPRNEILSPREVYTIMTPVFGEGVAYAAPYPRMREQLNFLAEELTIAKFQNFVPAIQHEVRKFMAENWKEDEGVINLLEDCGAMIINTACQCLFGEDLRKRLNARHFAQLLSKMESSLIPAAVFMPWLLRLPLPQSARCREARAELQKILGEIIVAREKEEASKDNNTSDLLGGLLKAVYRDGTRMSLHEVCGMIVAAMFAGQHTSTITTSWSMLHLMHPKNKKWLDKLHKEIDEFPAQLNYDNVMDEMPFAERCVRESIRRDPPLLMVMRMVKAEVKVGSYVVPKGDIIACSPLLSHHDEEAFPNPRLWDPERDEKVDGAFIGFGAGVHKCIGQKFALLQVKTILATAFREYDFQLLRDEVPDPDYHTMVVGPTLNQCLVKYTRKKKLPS
- METHOD NOTES: GSK_TCAKS: pIC50 CYP51 from Trypanosoma cruzi.
Label key: condition met means IC50 under 8 µM; condition not met means IC50 of 8 µM or more.

[[record]]
compound = "CCC(=O)Nc1ccccc1C(=O)Nc1ccccn1"
study_target = "Sterol 14-alpha demethylase (Trypanosoma cruzi (strain CL Brener))"
class = "condition not met"

[[record]]
compound = "CCCc1cc(N)nc(-c2cc(CCC)cc(N)n2)c1"
study_target = "Sterol 14-alpha demethylase (Trypanosoma cruzi (strain CL Brener))"
class = "condition not met"

[[record]]
compound = "C[C@@H](Oc1cc(-n2cnc3ccc(CC(O)CO)cc32)sc1C(N)=O)c1ccccc1Cl (some centres undefined)"
study_target = "Sterol 14-alpha demethylase (Trypanosoma cruzi (strain CL Brener))"
class = "condition not met"

[[record]]
compound = "O=S(=O)(NCC(c1cccnc1)N1CCN(c2ccc(F)cc2)CC1)c1cccs1 (centres undefined)"
study_target = "Sterol 14-alpha demethylase (Trypanosoma cruzi (strain CL Brener))"
class = "condition met"

[[record]]
compound = "CCN(Cc1ccncc1)Cc1ccc(NC(=O)c2cc(-c3ccc(F)cc3)n[nH]2)cc1"
study_target = "Sterol 14-alpha demethylase (Trypanosoma cruzi (strain CL Brener))"
class = "condition met"

[[record]]
compound = "CCCn1c(NC(=O)CCn2cc(Br)cn2)nc2ccccc21"
study_target = "Sterol 14-alpha demethylase (Trypanosoma cruzi (strain CL Brener))"
class = "condition not met"

[[record]]
compound = "CN(C)S(=O)(=O)c1ccc(Cl)c(C(=O)Nc2nc(-c3ccccn3)cs2)c1"
study_target = "Sterol 14-alpha demethylase (Trypanosoma cruzi (strain CL Brener))"
class = "condition not met"

[[record]]
compound = "CC1CN(S(=O)(=O)c2ccc(NC(=O)c3cc(C4CC4)nc4c3cnn4C(C)C)cc2)CC(C)O1 (centres undefined)"
study_target = "Sterol 14-alpha demethylase (Trypanosoma cruzi (strain CL Brener))"
class = "condition not met"


====

- METHOD NOTES: GSK_TCAKS: pIC50 HepG2 human cell line viability assay using luminiscence. […] Seeding density was checked to ensure that new mono-layers were not more than 50% confluent at the time of harvesting. Cell suspension was added to 500 mL of the same medium at a final density of 1.2 * 10^5 cells/mL. This cell suspension was dispensed (25 uL, 3000 cells per well) into 384-well clear-bottom plates using a Multidrop Combi dispenser. Prior to addition of the cell suspension, the screening compounds (250 nL) were pre-dispensed into the plates with an Echo liquid handler. Plates were incubated for 48 h at 37C, 5% CO2. After incubation, plates equilibrated at room temperature for 30 min before proceeding to develop the luminescent signal. The signal developer, CellTiter-Glo Reagent, was allowed to equilibrate at room temperature for 30 min and added to the plates (25uL per well) using a Multidrop Combi dispenser. Plates were left for 10 min at room temperature for stabilization and then read using a ViewLux.
- Assay type: toxicity, cell-based
MEASUREMENT TYPE: IC50 at 48 h (µM)

[[record]]
molecule = "CCc1cccc(CC)c1-n1c(SCC(=O)NC(=O)NCc2ccco2)nnc1-c1cccnc1"
measurement_type = "IC50 at 48 h"
qual = ">"
measured = 100

[[record]]
molecule = "CN1CCCN(C(=O)c2ccc(N3CCCC3)cc2Cl)CC1"
measurement_type = "IC50 at 48 h"
qual = ">"
measured = 100

[[record]]
molecule = "Cc1occc1C(=O)Nc1ccccc1C(=O)Nc1nccs1"
measurement_type = "IC50 at 48 h"
qual = ">"
measured = 100

[[record]]
molecule = "CCC(=O)N1N=C(c2ccc3c(c2)CCCC3)Sc2c1ncn2C(=O)CC"
measurement_type = "IC50 at 48 h"
qual = ">"
measured = 100

[[record]]
molecule = "Cc1ccc(C)c(CN2C(=O)NC3(CCc4ccccc43)C2=O)c1 (configuration not stated)"
measurement_type = "IC50 at 48 h"
qual = ">"
measured = 100

[[record]]
molecule = "CC(C)(C)Nc1nc(Nc2ccc3c(c2)CS(=O)(=O)C3)nc2[nH]ccc12"
measurement_type = "IC50 at 48 h"
qual = "="
measured = 31.6

[[record]]
molecule = "CN(C(=O)Nc1ccc2c(c1)CCN(C1CCC1)CC2)c1ccc(C#N)cc1"
measurement_type = "IC50 at 48 h"
qual = ">"
measured = 100

[[record]]
molecule = "O=C(NCC1CCCCC1)c1cc(=O)c2ccccc2o1"
measurement_type = "IC50 at 48 h"
qual = "="
measured = 25.1

[[record]]
molecule = "O=C(CC1(O)C(=O)N(Cc2cccs2)c2ccc(Br)cc21)c1cccnc1 (configuration not stated)"
measurement_type = "IC50 at 48 h"
qual = "="
measured = 63.1

[[record]]
molecule = "O=C1CN(C(=O)c2cccc(Nc3ncc(-c4ccc5c(c4)OCO5)cn3)c2)CCN1"
measurement_type = "IC50 at 48 h"
qual = ">"
measured = 126

[[record]]
molecule = "COc1cccc(-c2c(C)nn(-c3nc(N)nc(-c4ccccn4)n3)c2N)c1"
measurement_type = "IC50 at 48 h"
qual = ">"
measured = 100

[[record]]
molecule = "O=[N+]([O-])c1ccc(-c2nnn(-c3cccnc3)n2)o1"
measurement_type = "IC50 at 48 h"
qual = ">"
measured = 100

[[record]]
molecule = "Cc1ccc2onc(Nc3ccnc(Nc4cccc(S(C)(=O)=O)c4)n3)c2c1"
measurement_type = "IC50 at 48 h"
qual = "="
measured = 50.1

[[record]]
molecule = "NCC(Cc1ccccc1)NC(=O)c1cnc(-c2c[nH]c3ncccc23)s1 (configuration not stated)"
measurement_type = "IC50 at 48 h"
qual = "="
measured = 79.4

[[record]]
molecule = "O=[N+]([O-])c1ccc(-c2nnn(-c3ccc(Cl)cc3)n2)o1"
measurement_type = "IC50 at 48 h"
qual = ">"
measured = 100

[[record]]
molecule = "CCOc1ccc2nc(NC(=O)c3ccc([N+](=O)[O-])s3)sc2c1"
measurement_type = "IC50 at 48 h"
qual = "="
measured = 31.6

[[record]]
molecule = "CCOc1ccc(CN(C)Cc2nc(Nc3ccc(C)cc3)[nH]c(=N)n2)cc1"
measurement_type = "IC50 at 48 h"
qual = "="
measured = 31.6

